Test system: HLA A2
Type: binding, human
Conditions: RMA-S/A2 cells, in vitro binding assay
PROPERTY_NAME: binding to HLA A2 (in words)

Worked examples, 5 sequences total:
SEQUENCE_ENTRY	PROPERTY_NAME	VALUE_MEASURED
LLMLAISLV [CH33]	binding to HLA A2 (in words)	do not seem to bind
NLWSHYTDL (listed as Chlamydia pneumoniae) [CH53]	binding to HLA A2 (in words)	bind to HLA A2
FLQRGESFV [CH30]	binding to HLA A2 (in words)	bind to HLA A2
YVFDRILKV [CH13]	binding to HLA A2 (in words)	bind to HLA A2
ALMLLNNYV (listed as Chlamydia pneumoniae) [CH20]	binding to HLA A2 (in words)	bind to HLA A2

# map each sequence to its binding to HLA A2 (in words)
1. YLTSYSPYV (listed as Chlamydia pneumoniae) [CH15]
2. KLLKDHFDL (listed as Chlamydia pneumoniae) [CH34]
3. WLVFFNPFV [CH12]
4. GLTEEIDYV [CH10]
5. TLWGSFVDV (listed as Chlamydia pneumoniae) [CH21]
6. IALLVIFFV [CH18]
7. YLLDFRWPL [CH37]

1. bind to HLA A2
2. bind to HLA A2
3. do not seem to bind
4. bind to HLA A2
5. bind to HLA A2
6. do not seem to bind
7. bind to HLA A2

* * *

Please respond with reported Mean 2 for every item in the list.
Tested on: HLA A2
Type: binding, human
Settings: 100 μM peptide; RMA-S/A2 cells, peptide, anti-A2 Mab BB7.2 and secondary antibody; FACS mean
One number for each entry.

Worked examples, 5 sequences total:
SEQUENCE_ENTRY	Mean 2
NLSRQAFFA (listed as Chlamydia pneumoniae) [CH51]	311
ALMLLNNYV (listed as Chlamydia pneumoniae) [CH20]	578
FLQRGESFV [CH30]	398
YLTSYSPYV (listed as Chlamydia pneumoniae) [CH15]	557
KLLKDHFDL (listed as Chlamydia pneumoniae) [CH34]	390

Turning to the following sequence.
In one line, give reported Mean 2 of the entry YLMQKLQNV [CH29] .
418

* * *

Please respond with reported Mean 2 for every item in the list.
Test system: HLA A2
Format: binding, human
Conditions: 10 μM peptide; RMA-S/A2 cells, peptide, anti-A2 Mab BB7.2 and secondary antibody; FACS mean
Numbers only.

SEQUENCE_ENTRY	TESTED_TARGET	VALUE_MEASURED
YLLDFRWPL [CH37]	HLA A2	402

# map each sequence to its Mean 2
1. KLWEWLGYL [CH32]
2. GLTEEIDYV [CH10]

1. 378
2. 587

# map each sequence to its Mean 2
1. ILSFLPWLV [CH35]
2. WLFDLRFSV (listed as Chlamydia pneumoniae) [CH22]
3. YMDNNLFYV [CH7]
4. WMMGVVLMI [CH45]
5. VMLFIGLGV [CH60]
6. SITVFRWLV [CH58]
7. YLLEEIYTV [CH6]

[411, 390, 551, 358, 281, 300, 574]

* * *

System: CD8^+ cells from immunised transgenic mice
Assay: IFN-γ/CD8+ ELISpot assay after DNA immunisation of HLA-A2 transgenic mice
Type: cell-based
Settings: peptide dose 20 μg/ml; after subtraction of HepB negative controls
Please respond with reported Mean IFN-γ^+ve per 10^6 CD8^+ve cells for every item in the list.
One number for each entry, in per 10^6 CD8^+ve cells.

SEQUENCE_ENTRY	Mean IFN-γ^+ve per 10^6 CD8^+ve cells (per 10^6 CD8^+ve cells)
YMDNNLFYV [CH7]	433

# map each sequence to its Mean IFN-γ^+ve per 10^6 CD8^+ve cells
1. GLTEEIDYV [CH10]
2. YVFDRILKV [CH13]
3. SITVFRWLV [CH58]
4. YLLEEIYTV [CH6]

1. 200
2. 540
3. 986
4. 266.6
